Recorded measurements of pEC50, one per entry
# System: Vesicular stomatitis virus
# test.name: Antiviral activity against Vesicular stomatitis virus infected in human HeLa cells assessed as reduction of virus-induced cytopathogenicity
# Assay type: functional, organism-based
pEC50: −log10 of the molar value.

Known pEC50 results, listed for orientation:
CCOC(=O)c1cnc(NCCCCNc2ccnc3cc(Cl)ccc23)nc1C : < 4.70
Nc1ncnc2c1ncn2C[C@H](O)CO [(S)-DHPA] : < 3.60
Cc1nc(NCCCCNc2ccnc3cc(Cl)ccc23)nc(-c2ccccc2)c1C(=O)OC(C)C : < 4.00
CCOC(=O)c1c(C)nc(NCCCCNc2ccnc3cc(Cl)ccc23)nc1-c1ccc(Cl)cc1 : < 4.00
CCOC(=O)c1c(C)nc(NCCCCNc2ccnc3cc(Cl)ccc23)nc1-c1ccccc1[N+](=O)[O-] : < 4.70
CCOC(=O)c1c(C)nc(NCCCCNc2ccnc3cc(Cl)ccc23)nc1-c1ccc(F)cc1 : < 4.00

I am curious: what pEC50 value has been reported for `COC(=O)c1c(C)nc(NCCCNc2ccnc3cc(Cl)ccc23)nc1-c1ccccc1` ?
< 4.70

Then what about the compound `CCOC(=O)c1c(C)nc(OCCCNc2ccnc3cc(Cl)ccc23)nc1-c1ccccc1` ?
< 4.00

----------
# test.name: Cytotoxicity against cat CRFK cells
# Assay type: cell-based, Felis catus
# assay.context: crfk
metric.name: CC50

CCOC(=O)c1c(C)nc(OCCCNc2ccnc3cc(Cl)ccc23)nc1-c1ccccc1 : > 100 µM
CCOC(=O)c1c(C)nc(NCCCCNc2ccnc3cc(Cl)ccc23)nc1-c1ccccc1[N+](=O)[O-] : > 100 µM
COC(=O)c1c(C)nc(NCCCNc2ccnc3cc(Cl)ccc23)nc1-c1ccccc1 : 25.1 µM

// CC50 lookup, key: `CCOC(=O)c1c(C)nc(NCCCCNc2ccnc3cc(Cl)ccc23)nc1-c1ccc(F)cc1`
> 100 µM

Same question for `Cc1nc(NCCCCNc2ccnc3cc(Cl)ccc23)nc(-c2ccccc2)c1C(=O)OC(C)C` please.
50.6 µM

# iterate: `CCOC(=O)c1c(C)nc(NCCCCNc2ccnc3cc(Cl)ccc23)nc1-c1ccc(Cl)cc1`
> 100 µM

----------
# System: Vesicular stomatitis virus
# test.name: Antiviral activity against Vesicular stomatitis virus infected in human HEL cells assessed as reduction of virus-induced cytopathogenicity
# Type: functional, organism-based
pEC50: −log10 of the molar value.
# pEC50 annotations

Before answering, review these 8 worked examples.
CCOC(=O)c1c(C)nc(OCCCNc2ccnc3cc(Cl)ccc23)nc1-c1ccccc1 : < 4.00
CCOC(=O)c1c(C)nc(NCCCCNc2ccnc3cc(Cl)ccc23)nc1-c1ccc(F)cc1 : < 4.00
O=c1[nH]c(=O)n([C@H]2C[C@H](O)[C@@H](CO)O2)cc1/C=C/Br : < 3.60
Nc1ccn(C[C@@H](CO)OCP(=O)(O)O)c(=O)n1 : < 3.60
Nc1nc2c(ncn2COCCO)c(=O)[nH]1 : < 3.60
COC(=O)c1c(C)nc(NCCCNc2ccnc3cc(Cl)ccc23)nc1-c1ccccc1 : < 4.70
CCOC(=O)c1cnc(NCCCCNc2ccnc3cc(Cl)ccc23)nc1C : < 4.00
Nc1nc2c(ncn2COC(CO)CO)c(=O)[nH]1 : < 4.00

Using the record for `CCOC(=O)c1c(C)nc(NCCCCNc2ccnc3cc(Cl)ccc23)nc1-c1ccc(Cl)cc1` , report its pEC50.
< 4.70

Can you check `Cc1nc(NCCCCNc2ccnc3cc(Cl)ccc23)nc(-c2ccccc2)c1C(=O)OC(C)C` next?
< 5.40

Continue with `CCOC(=O)c1c(C)nc(NCCCCNc2ccnc3cc(Cl)ccc23)nc1-c1ccccc1[N+](=O)[O-]`
< 5.40

----------
# System: MDCK
# test.name: Cytotoxicity against MDCK cells assessed as cell viability after 4 days by MTS assay
# Type: cell-based, Canis lupus familiaris
# assay.context: dog, mdck, 96 h
# CC50 listing for each entry below
// note: answer is a bare numeric in nM

CCOC(=O)c1c(C)nc(NCCCCNc2ccnc3cc(Cl)ccc23)nc1-c1ccc(Cl)cc1 : 2200
CCOC(=O)c1c(C)nc(NCCCCNc2ccnc3cc(Cl)ccc23)nc1-c1ccccc1[N+](=O)[O-] : 800
CCOC(=O)c1c(C)nc(NCCCCNc2ccnc3cc(Cl)ccc23)nc1-c1ccc(F)cc1 : 11400
Cc1nc(NCCCCNc2ccnc3cc(Cl)ccc23)nc(-c2ccccc2)c1C(=O)OC(C)C : 600
COC(=O)c1c(C)nc(NCCCNc2ccnc3cc(Cl)ccc23)nc1-c1ccccc1 : 1700

// moving on: another record for CC50
Lab note: need CC50 for `CCOC(=O)c1c(C)nc(OCCCNc2ccnc3cc(Cl)ccc23)nc1-c1ccccc1` on MDCK, anyone have it?
21100

----------
# test.name: Cytotoxicity against MDCK cells assessed as cell viability after 4 days by MTS assay
# Assay type: cell-based, Canis lupus familiaris
# assay.context: dog, MDCK cells
metric.name: MCC at 96 h (µM)
The figure you give is taken to be in µM; do not add the unit.

CCOC(=O)c1c(C)nc(NCCCCNc2ccnc3cc(Cl)ccc23)nc1-c1ccc(F)cc1 : 20

Form field: reported MCC at 96 h of `Cc1nc(NCCCCNc2ccnc3cc(Cl)ccc23)nc(-c2ccccc2)c1C(=O)OC(C)C`
0.8

Request: `CCOC(=O)c1c(C)nc(NCCCCNc2ccnc3cc(Cl)ccc23)nc1-c1ccccc1[N+](=O)[O-]`
0.8

Try the molecule `COC(=O)c1c(C)nc(NCCCNc2ccnc3cc(Cl)ccc23)nc1-c1ccccc1`
0.8

Thanks! And `CCOC(=O)c1c(C)nc(OCCCNc2ccnc3cc(Cl)ccc23)nc1-c1ccccc1` ?
20

----------
# test.name: Cytotoxicity against african green monkey Vero cells
# Assay type: cell-based
# assay.context: chlorocebus sabaeus
Reported MCC values are given for each entry in this list.
Output spec: scalar in µM, unitless text.

Give its MCC value. Item: `CCOC(=O)c1c(C)nc(NCCCCNc2ccnc3cc(Cl)ccc23)nc1-c1ccccc1[N+](=O)[O-]`
4

Follow-up item: `COC(=O)c1c(C)nc(NCCCNc2ccnc3cc(Cl)ccc23)nc1-c1ccccc1`
20

Also need `CCOC(=O)c1cnc(NCCCCNc2ccnc3cc(Cl)ccc23)nc1C` , thanks.
100

And `CCOC(=O)c1c(C)nc(NCCCCNc2ccnc3cc(Cl)ccc23)nc1-c1ccc(Cl)cc1` ?
4

----------
# Tested on: Influenza B virus
# test.name: Antiviral activity against influenza B virus infected in dog MDCK cells assessed as reduction of virus-induced cytopathogenicity by MTS assay
# Assay type: functional, organism-based
pEC50: −log10 of the molar value.
metric.name: pEC50

CC(N)C12CC3CC(CC(C3)C1)C2 (stereo not given) : < 3.70
Cc1nc(NCCCCNc2ccnc3cc(Cl)ccc23)nc(-c2ccccc2)c1C(=O)OC(C)C : < 6.80

For the next question, use this compound.
Look up pEC50: `CCOC(=O)c1c(C)nc(NCCCCNc2ccnc3cc(Cl)ccc23)nc1-c1ccccc1[N+](=O)[O-]`
< 6.80

----------
# test.name: Cytotoxicity against human HeLa cells
# Format: cell-based
metric.name: MCC

CCOC(=O)c1c(C)nc(NCCCCNc2ccnc3cc(Cl)ccc23)nc1-c1ccc(Cl)cc1 : > 100 µM
NC(=O)c1ncn([C@@H]2O[C@H](CO)[C@@H](O)[C@H]2O)n1 : > 250 µM
CCOC(=O)c1cnc(NCCCCNc2ccnc3cc(Cl)ccc23)nc1C : 100 µM
COC(=O)c1c(C)nc(NCCCNc2ccnc3cc(Cl)ccc23)nc1-c1ccccc1 : 100 µM
CCOC(=O)c1c(C)nc(NCCCCNc2ccnc3cc(Cl)ccc23)nc1-c1ccc(F)cc1 : > 100 µM

Given the compound Nc1ncnc2c1ncn2C[C@H](O)CO [(S)-DHPA] , what is its reported MCC?
> 250 µM

How about `CCOC(=O)c1c(C)nc(NCCCCNc2ccnc3cc(Cl)ccc23)nc1-c1ccccc1[N+](=O)[O-]` ?
100 µM

Here is the next compound: `Cc1nc(NCCCCNc2ccnc3cc(Cl)ccc23)nc(-c2ccccc2)c1C(=O)OC(C)C`
> 100 µM

Now consider `CCOC(=O)c1c(C)nc(OCCCNc2ccnc3cc(Cl)ccc23)nc1-c1ccccc1` and answer again.
> 100 µM

----------
# test.name: Cytotoxicity against human HEL cells
# Format: cell-based
metric.name: MCC

Look over these answered cases.
CCOC(=O)c1cnc(NCCCCNc2ccnc3cc(Cl)ccc23)nc1C : ≥ 100 µM
COC(=O)c1c(C)nc(NCCCNc2ccnc3cc(Cl)ccc23)nc1-c1ccccc1 : ≥ 20 µM

Param item = `Nc1ccn(C[C@@H](CO)OCP(=O)(O)O)c(=O)n1` ; retrieve measured MCC.
> 250 µM

Further, for `CCOC(=O)c1c(C)nc(NCCCCNc2ccnc3cc(Cl)ccc23)nc1-c1ccc(Cl)cc1` ?
20 µM

// repeat for `O=c1[nH]c(=O)n([C@H]2C[C@H](O)[C@@H](CO)O2)cc1/C=C/Br` and report
> 250 µM

Okay, and `CCOC(=O)c1c(C)nc(NCCCCNc2ccnc3cc(Cl)ccc23)nc1-c1ccc(F)cc1` ?
≥ 20 µM

What do we get for `CCOC(=O)c1c(C)nc(OCCCNc2ccnc3cc(Cl)ccc23)nc1-c1ccccc1` ?
> 4 µM

And then `Nc1nc2c(ncn2COCCO)c(=O)[nH]1` , what is it?
> 250 µM

How about `Nc1nc2c(ncn2COC(CO)CO)c(=O)[nH]1` ?
> 100 µM

Same again, this time with `CCOC(=O)c1c(C)nc(NCCCCNc2ccnc3cc(Cl)ccc23)nc1-c1ccccc1[N+](=O)[O-]`
20 µM

Next record, please: `Cc1nc(NCCCCNc2ccnc3cc(Cl)ccc23)nc(-c2ccccc2)c1C(=O)OC(C)C`
20 µM

Taken from ChEMBL document CHEMBL2417501.
